Entries and their measured IC90 follow.
# tested on: T1, alpha4beta7 on 38C13 alpha4+ murine lymphoma cells transfected with integrin beta7 (38C13beta7 cells) (murine, UniProt Q00651 41-1039; P26011 20-806)
# T1 construct: whole, on cells; also called 38C13-beta7 expressing cells; murine beta7-containing receptor
# T1 sequence (Q00651 41-1039, chain 1 of 2): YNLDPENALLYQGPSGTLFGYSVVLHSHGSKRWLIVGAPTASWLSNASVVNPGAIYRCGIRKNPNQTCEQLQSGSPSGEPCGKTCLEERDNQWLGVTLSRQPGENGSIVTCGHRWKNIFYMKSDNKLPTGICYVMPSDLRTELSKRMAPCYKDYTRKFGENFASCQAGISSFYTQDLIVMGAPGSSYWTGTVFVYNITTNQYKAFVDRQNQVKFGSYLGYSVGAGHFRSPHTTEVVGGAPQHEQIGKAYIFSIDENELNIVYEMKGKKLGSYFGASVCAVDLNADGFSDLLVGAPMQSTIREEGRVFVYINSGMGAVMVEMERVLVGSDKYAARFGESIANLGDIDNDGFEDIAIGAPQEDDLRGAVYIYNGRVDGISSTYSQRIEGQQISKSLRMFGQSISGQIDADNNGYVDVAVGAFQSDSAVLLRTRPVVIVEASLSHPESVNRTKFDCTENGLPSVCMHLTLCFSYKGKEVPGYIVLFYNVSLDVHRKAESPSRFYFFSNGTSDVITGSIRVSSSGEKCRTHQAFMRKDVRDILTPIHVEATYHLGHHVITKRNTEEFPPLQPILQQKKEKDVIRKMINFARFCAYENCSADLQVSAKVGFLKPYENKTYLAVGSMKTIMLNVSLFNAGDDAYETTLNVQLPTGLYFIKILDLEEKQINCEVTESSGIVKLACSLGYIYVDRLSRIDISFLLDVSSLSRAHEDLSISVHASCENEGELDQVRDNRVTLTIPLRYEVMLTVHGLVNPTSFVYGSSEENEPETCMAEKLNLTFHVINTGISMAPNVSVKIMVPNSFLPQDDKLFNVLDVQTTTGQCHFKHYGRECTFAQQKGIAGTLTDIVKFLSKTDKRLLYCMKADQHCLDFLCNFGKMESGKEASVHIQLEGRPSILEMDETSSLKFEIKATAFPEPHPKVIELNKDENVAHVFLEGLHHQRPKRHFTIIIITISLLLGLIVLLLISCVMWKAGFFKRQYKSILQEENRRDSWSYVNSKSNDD
# T1 sequence (P26011 20-806, chain 2 of 2): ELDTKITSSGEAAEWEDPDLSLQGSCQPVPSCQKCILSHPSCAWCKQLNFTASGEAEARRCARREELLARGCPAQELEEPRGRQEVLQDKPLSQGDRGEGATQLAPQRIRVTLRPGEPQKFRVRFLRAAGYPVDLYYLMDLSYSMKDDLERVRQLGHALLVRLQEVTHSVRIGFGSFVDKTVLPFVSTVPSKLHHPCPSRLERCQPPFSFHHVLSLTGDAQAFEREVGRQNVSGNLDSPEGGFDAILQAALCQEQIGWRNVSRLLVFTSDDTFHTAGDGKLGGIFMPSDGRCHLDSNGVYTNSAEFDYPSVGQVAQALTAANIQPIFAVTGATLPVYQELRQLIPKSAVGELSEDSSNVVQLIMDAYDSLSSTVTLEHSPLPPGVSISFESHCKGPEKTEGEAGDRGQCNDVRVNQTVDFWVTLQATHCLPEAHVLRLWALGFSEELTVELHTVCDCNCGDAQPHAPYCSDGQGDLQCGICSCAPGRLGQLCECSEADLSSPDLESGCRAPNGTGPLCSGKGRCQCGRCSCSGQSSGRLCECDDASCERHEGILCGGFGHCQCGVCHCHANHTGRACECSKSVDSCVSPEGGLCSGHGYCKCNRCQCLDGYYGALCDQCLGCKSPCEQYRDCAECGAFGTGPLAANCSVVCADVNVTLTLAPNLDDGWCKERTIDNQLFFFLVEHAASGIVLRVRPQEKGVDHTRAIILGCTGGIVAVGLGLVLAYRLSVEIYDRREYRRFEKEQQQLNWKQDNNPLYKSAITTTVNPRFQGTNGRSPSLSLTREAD
# protocol description: cell adhesion inhibition, 38C13beta7 cells on coated muMAdCAM-1-Ig, experiment 1 of 2
Give the quantity in nM, number only.

binder	IC90 / nM
Variant hu504.5, IgG (antibody, name in Kabat numbering, V domains shown) VH: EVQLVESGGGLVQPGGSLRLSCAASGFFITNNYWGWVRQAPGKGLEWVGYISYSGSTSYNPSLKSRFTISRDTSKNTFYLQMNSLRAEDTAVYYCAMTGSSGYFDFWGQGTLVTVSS VL: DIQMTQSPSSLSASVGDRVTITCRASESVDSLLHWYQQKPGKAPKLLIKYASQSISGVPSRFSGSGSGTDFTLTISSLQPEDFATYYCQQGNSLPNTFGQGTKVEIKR	2.32
Rat Fib504 (antibody FIB504.64 produced by hybridoma ATCC HB-293) (antibody, V domains shown, Whole rat antibody in the cell adhesion assays; also called rat anti-mouse beta7 antibody) VH: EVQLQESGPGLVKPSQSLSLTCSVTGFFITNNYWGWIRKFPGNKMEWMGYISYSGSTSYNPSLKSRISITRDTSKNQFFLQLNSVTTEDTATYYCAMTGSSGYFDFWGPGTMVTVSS VL: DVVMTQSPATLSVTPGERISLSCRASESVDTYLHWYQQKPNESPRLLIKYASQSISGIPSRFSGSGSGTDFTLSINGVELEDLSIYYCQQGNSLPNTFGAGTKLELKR	2.87

**Q:** Give the value of IC90 reported for the following: Variant hu504.16, IgG (antibody, name in Kabat numbering, V domains shown) VH: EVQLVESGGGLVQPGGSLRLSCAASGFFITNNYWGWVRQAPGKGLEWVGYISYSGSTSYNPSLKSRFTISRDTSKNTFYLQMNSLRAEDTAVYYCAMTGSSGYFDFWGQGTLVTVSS VL: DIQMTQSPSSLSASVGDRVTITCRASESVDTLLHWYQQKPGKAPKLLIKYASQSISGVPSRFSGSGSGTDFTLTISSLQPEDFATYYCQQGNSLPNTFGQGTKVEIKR
**A:** 3.72

**Q:** Recall and state the measured IC90 for Variant hu504.32, IgG (antibody, V domains shown, methionine at heavy chain position 94; also called hu504.32M; 504.32M) VH: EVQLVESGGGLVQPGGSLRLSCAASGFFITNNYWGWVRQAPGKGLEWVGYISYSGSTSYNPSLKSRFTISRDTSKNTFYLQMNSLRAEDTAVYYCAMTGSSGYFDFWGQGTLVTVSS VL: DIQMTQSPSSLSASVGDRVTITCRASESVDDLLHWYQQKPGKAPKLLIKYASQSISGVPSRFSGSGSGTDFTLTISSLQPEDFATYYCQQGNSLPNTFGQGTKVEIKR .
**A:** 4.08
